tested on: HCT-116 colon; test: NCI tumour cell line growth inhibition, 48 h
Property Name: GI50

Example results:
| Compound | Property Name | Result |
| --- | --- | --- |
| CCCCC#Cc1c(I)n(C2OC(CO[Si](C)(C)C(C)(C)C)C3OC(C)(C)OC32)c(=O)n(C(=O)c2ccccc2)c1=O (stereo not drawn) | GI50 | 1.36 µM |
| Nc1c(C(=O)c2cccc(C(O)CO)c2)cnn1-c1ccc(F)cc1 (stereo not drawn) | GI50 | > 25 µM |

Then there is this compound:
IN: Fill in the recorded GI50 for this compound, with HCT-116 colon as test system: "Cc1c(Nc2nccc3cc(CN4CC[C@@H](O)C4)cnc23)cccc1-c1cccc(-c2nc3cc(CN4CC[C@@H](C(=O)O)C4)cc(C#N)c3o2)c1C"
OUT: 6.06 µM

----------
system: NCI-H460 lung; test: NCI tumour cell line growth inhibition, 48 h
Entries and their TGI values follow.

Below: 10 compounds and their reported TGI.
| Compound | TGI |
| --- | --- |
| COc1ccc(C2NN=C3c4ccccc4CCC32)cc1 (stereo unspecified) | 71.3 µM |
| CC12CCC(=O)C(O1)C1C(=O)c3ccc4c(ccc5ccccc54)c3C(=O)C12 (stereo unspecified) | 11.8 µM |
| CC(/C=C/C(=O)c1sc(C(N)=S)nc1C)=C\c1ccccc1 | > 100 µM |
| Cc1nc(NS(=O)(=O)c2ccc(NCN3C(=O)c4ccccc4C3=O)cc2)oc1C | > 100 µM |
| COc1ccc(NC(=O)CC(=O)N/N=C(\C)c2cc3ccccc3oc2=O)cc1 | > 100 µM |
| Cc1ccc(N2C(=O)/C(=C/c3ccc(N(CCC#N)CCC#N)cc3)N=C2COc2ccc(Cl)cc2Cl)cc1 | > 100 µM |
| C=C(Br)C[N+]12CN3CN(CN(C3)C1)C2 | > 100 µM |
| COc1cc2c(cc1OC)C(C(CBr)CBr)N(C1CCCC1)CC2 (stereo unspecified) | > 100 µM |
| Cc1cc(=O)[nH]c(NNC(C#N)c2ccccc2O)n1 (stereo unspecified) | > 100 µM |
| O=C1CC(C2(O)C(=O)Nc3ccc([N+](=O)[O-])cc32)c2ccccc21 (stereo unspecified) | 29.9 µM |

IN: Would you mind telling me what TGI value was observed for "N#C/C(=C/N1CCN(C(=O)c2ccco2)C1=S)C(=O)Nc1ccc(Cl)cc1" ?
OUT: > 50 µM

IN: I am curious: what TGI value has been reported for "COc1ccc2c(c1O)[C@@]13CCCC=C1[C@@H](C2)[N+](C)(C)CC3" ?
OUT: > 100 µM

----------
// values below are reported GI50
tested on: HCT-116 colon; test: NCI tumour cell line growth inhibition, 48 h

Study these solved cases before continuing.
| Compound | GI50 |
| --- | --- |
| COc1cc(/C=C/C(=O)CC(=O)/C=C/c2cc(OC)c(O)c(OC)c2)cc(OC)c1O | 17200 nM |
| CCN1CCN(c2cc(C(=O)Nc3cccc(Nc4ccc5c(OC)cccc5n4)c3)cc(C(F)(F)F)c2)CC1 | 872 nM |
| Nc1nc(Cl)nc2c1ncn2C1OC(CO)C(O)C1F (centres undefined) | 32.2 nM |
| NC1=NC(SCc2ccccc2CCl)c2ncn(Cc3ccccc3CCl)c2N1 (centres undefined) | 1470 nM |
| CC12CCC(=O)C(O1)C1C(=O)c3ccc4c(ccc5ccccc54)c3C(=O)C12 (centres undefined) | 3030 nM |
| O=C1C(N2CCN(CCOCCO)CC2)=C(Cl)C(=O)c2ncccc21 | 18500 nM |
| O=C(Nc1ccc(-n2cc(-c3ccncc3)c(-c3ccc(O)c(Cl)c3)n2)cc1)c1ccc(Cl)c(C(F)(F)F)c1 | 1750 nM |
| CN1CCN(Cc2ccc(NC(=O)c3[nH]ncc3Nc3ncnc4[nH]ccc34)cc2)CC1 | 214 nM |

IN: Which GI50 reading was recorded for the compound "CC(C)C[C@H](NC(=O)Cn1cccc(CNC(=O)c2ccccc2)c1=O)B(O)O" ?
OUT: 337 nM

----------
Measured TGI of individual entries
test system: ACHN renal; experiment: NCI tumour cell line growth inhibition, 48 h

| Compound | Target Desc | TGI |
| --- | --- | --- |
| Cc1cc2nc3ccccc3n2c2ccccc12 | ACHN renal | > 10 µM |

IN: Value wanted: TGI (ACHN renal) of entry "O=c1[nH]c2ccccc2c(O)c1/C=N/C(=S)NC1CCCCC1"
OUT: > 100 µM

IN: Kindly state the measured TGI obtained for COC(=O)c1onc(C2OC(C)(C)OC2C(O)COC(c2ccccc2)(c2ccccc2)c2ccccc2)c1C(=O)OC (stereo not given) with ACHN renal.
OUT: > 100 µM

IN: For the record CCOC(=O)[C@@]12C(C)=CC(=O)O[C@]1(C)C1C(=O)NC(=O)C12 (stereo not given in full) , what value of TGI is listed for ACHN renal?
OUT: > 100 µM

IN: Identify the measured TGI of "Nc1ccc2c(=O)cc(-c3ccc(Br)s3)[nH]c2n1" for ACHN renal.
OUT: > 100 µM

IN: Short answer please: TGI, ACHN renal, entry "COc1ccc(-n2c(N)c(C#N)c(C#N)c2-c2ccco2)cc1"
OUT: > 100 µM

----------
test system: IGROV1 ovarian; assay: NCI tumour cell line growth inhibition, 48 h
Property Name: GI50

Below, 5 molecules whose answers are already recorded.
| Molecule | Target Desc | GI50 |
| --- | --- | --- |
| OCCCCC#Cc1ccccc1C#Cc1cccnc1 | IGROV1 ovarian | 20.3 µM |
| CN(C)CCN1C(=O)c2cccc3c(/C=C/CN4C(=O)c5cccc6cccc(c56)C4=O)ccc(c23)C1=O | IGROV1 ovarian | > 100 µM |
| CCC[CH2][Sn]([CH2]CCC)([CH2]CCC)/[C](=C/[Si](C)(C)c1ccccc1)c1ccc2c(c1)OCO2 | IGROV1 ovarian | 16.9 µM |
| Cc1c(Nc2nccc3cc(CN4CC[C@@H](O)C4)cnc23)cccc1-c1cccc(-c2nc3cc(CN4CC[C@@H](C(=O)O)C4)cc(C#N)c3o2)c1C | IGROV1 ovarian | 8.45 µM |
| Cc1ccc(S(=O)(=O)n2cc([C@@]3(O)C[C@H](CSC#N)OC3=O)c3ccccc32)cc1 | IGROV1 ovarian | 7.54 µM |

IN: Fill in: GI50 of "O=C(O)COc1ccc(OCC(=O)O)cc1" is ___
OUT: 1.8 µM

IN: Which measured GI50 value corresponds to C=CC1C(CC2OC(CO)C(O)C(O)C2O)OC=C2C(=O)OCCC21O (stereo not drawn) ?
OUT: 8.36 µM

----------
tested on: M14 melanoma; experiment: NCI tumour cell line growth inhibition, 48 h
Property Name: TGI (µM)
Field format: number, assumed µM, no unit text.

| Chem Smiles | Readout Number |
| --- | --- |
| CCCC1=C(OC)C(=O)c2c(C)cc(Cl)nc2C1=O | 18.9 |

Turning now to a further compound:
IN: # get_value(readout='TGI', item= "COc1ccc(Nc2ncnc3ccc(-c4cncc(NS(C)(=O)=O)c4)cc23)cc1Cl" )
OUT: 13.6

----------
Each item that follows carries a reported GI50.
tested on: BT-549 breast; assay: NCI tumour cell line growth inhibition, 48 h

IN: // query GI50 value for entry "O=C1NC(=O)C(c2cccc(Cl)c2)=C1Nc1ccc(Cl)c(C(=O)O)c1"
OUT: > 25 µM

----------
tested on: DMS 273 small cell lung; assay: NCI tumour cell line growth inhibition, 48 h
Entries and their measured TGI follow.

Answered cases to consult:
| Compound | TGI |
| --- | --- |
| COc1cc(Cc2c(C)cc(OC)c3[nH]c4ccccc4c23)cc2c1[nH]c1ccccc12 | 21.6 µM |
| CCCC(O)c1cn(-c2cccc(S(=O)(=O)O)c2)nn1 (stereo not given) | > 100 µM |
| CS(=O)(=O)c1ccc(COP(N)(=O)N(CCCl)CCCl)cc1 (stereo not given) | > 100 µM |

IN: For the compound shown here, "COc1ccc(N2C(=O)[C@@H](N=[N+]=[N-])[C@@H]2[C@H]2COC(C)(C)O2)cc1" , give the reported TGI.
OUT: > 100 µM

IN: GET /values?readout=TGI&item= "O=C(c1ccccc1)c1nnn(Cc2ccccc2Cn2nnc(C(=O)c3ccccc3)c2C(=O)c2ccccc2)c1C(=O)c1ccccc1"
OUT: > 100 µM

----------
test system: SF-268 CNS; experiment: NCI tumour cell line growth inhibition, 48 h
Property Name: TGI

In the examples that follow, each entry is paired with its recorded TGI.
| Molecule | Result |
| --- | --- |
| O=c1[nH]cc(N=Cc2cc(Cl)ccc2O)c(=O)[nH]1 | 47.3 µM |
| CC(=O)OCC1OC(SC2=NC(=O)CS2)C(OC(C)=O)C(OC(C)=O)C1OC(C)=O (stereo unspecified) | > 100 µM |
| C=CC1C(CC2OC(CO)C(O)C(O)C2O)OC=C2C(=O)OCCC21O (stereo unspecified) | 89 µM |

IN: What value of measured TGI is listed for "Cc1nc2ccc(Br)cc2c(=O)n1-c1ccc(N)cc1" ?
OUT: > 100 µM

IN: Quick one: TGI of CC(C)[C@H](C)/C=C/[C@@H](C)C1CC[C@H]2[C@@]34C=C[C@]5(C[C@@H](O)CC[C@]5(C)[C@H]3CC[C@]12C)OO4 (stereo partly specified) ?
OUT: > 100 µM

IN: For "O=c1c2ccccc2nc(N/N=C/c2ccc([N+](=O)[O-])cc2)n1-c1ccccc1" , what is its reported TGI?
OUT: 59.3 µM

IN: Please report the recorded TGI for "COc1ccc(CSC2=C(C#N)C(=O)NC3(CCCCC3)S2)cc1" .
OUT: > 87.4 µM

IN: # get_value(readout='TGI', item= O=C1CS/C(=N/S(=O)(=O)c2ccc(N3N=C4c5ccccc5CC4C3c3cccs3)cc2)N1C(=O)c1ccccc1 (stereo unspecified) )
OUT: > 100 µM

IN: Can you share its TGI? I mean this molecule: "CN(C)C=N[C@@H](C(=O)O)c1ccccc1"
OUT: > 100 µM

IN: Need TGI of Nc1c(C(=O)c2cccc(C(O)CO)c2)cnn1-c1ccc(F)cc1 (stereo unspecified) , thanks.
OUT: > 25 µM

IN: Entry under review: O=C1OC(=O)C23CSCC12C1C=CC3O1 (stereo unspecified) . Reported TGI?
OUT: > 100 µM

IN: I'd like to know its TGI. The molecule in question is COc1ccc(C2NN=C3c4ccccc4CCC32)cc1 (stereo unspecified)
OUT: > 100 µM
